# target: PRMT1 (Homo sapiens, UniProt Q99873)
# Sequence (Q99873 whole entry): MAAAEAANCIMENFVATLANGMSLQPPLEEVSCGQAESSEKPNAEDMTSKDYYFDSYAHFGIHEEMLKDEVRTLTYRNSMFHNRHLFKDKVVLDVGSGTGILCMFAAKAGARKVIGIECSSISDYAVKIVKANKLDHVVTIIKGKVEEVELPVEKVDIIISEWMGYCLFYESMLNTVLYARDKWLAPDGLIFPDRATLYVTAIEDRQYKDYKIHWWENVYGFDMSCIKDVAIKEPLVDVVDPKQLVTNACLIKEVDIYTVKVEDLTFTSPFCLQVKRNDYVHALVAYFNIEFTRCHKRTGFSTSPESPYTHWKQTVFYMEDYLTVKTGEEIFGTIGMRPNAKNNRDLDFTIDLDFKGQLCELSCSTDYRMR
# test-summary: AlphaLISA PRMT1 activity assay (H4R3me)
quantity: IC50 (nM)
Kindly provide the numeric value in nM only, without the unit symbol.

Inquiry: Would you mind telling me what IC50 value was observed for COC(=O)c1cc(O)c2cc(NC(=O)NCCCCCNC(=N)NC[C@H]3O[C@@H](n4cnc5c(N)ncnc54)[C@H](O)[C@@H]3O)ccc2c1 [12c] ?
Reply text: 300

* * *

# target: PRMT1 (Homo sapiens, UniProt Q99873)
# test-summary: AlphaLISA PRMT1 activity assay (H4R3me)
# experimental-conditions: read-out: % PRMT1 residual activ. @ 100 μM
quantity: remaining activity at 100 µM (%)
Kindly provide the numeric value in % only, without the unit symbol.

Inquiry: Provide the documented remaining activity at 100 µM with PRMT1 (Homo sapiens, UniProt Q99873) as the system for N=C(N)NCCCCCC(=O)Nc1ccc2cc(C(=O)O)cc(O)c2c1 [6b]
Reply text: 65.9

Inquiry: Provide the documented remaining activity at 100 µM with PRMT1 (Homo sapiens, UniProt Q99873) as the system for COC(=O)c1cc(O)c2cc(NC(=O)NCCCCCNC(=N)N)ccc2c1 [7c]
Reply text: -0.91

Inquiry: Provide the documented remaining activity at 100 µM with PRMT1 (Homo sapiens, UniProt Q99873) as the system for O=C(CCCCNC1=NCCN1)Nc1ccc2cc(C(=O)O)cc(O)c2c1 [6f]
Reply text: 25.1

Inquiry: Provide the documented remaining activity at 100 µM with PRMT1 (Homo sapiens, UniProt Q99873) as the system for N=C(N)NCCCCNC(=O)Nc1ccc2cc(C(=O)O)cc(O)c2c1 [8a]
Reply text: 31.5

Inquiry: Provide the documented remaining activity at 100 µM with PRMT1 (Homo sapiens, UniProt Q99873) as the system for COC(=O)c1cc(O)c2cc(NC(=O)CNC(=O)Nc3ccc(OC)cc3)ccc2c1 [10c]
Reply text: 87.1

Inquiry: Provide the documented remaining activity at 100 µM with PRMT1 (Homo sapiens, UniProt Q99873) as the system for CN(C)C(=N)NCCCCC(=O)Nc1ccc2cc(C(=O)O)cc(O)c2c1 [6e]
Reply text: 36.8

Inquiry: Provide the documented remaining activity at 100 µM with PRMT1 (Homo sapiens, UniProt Q99873) as the system for COC(=O)c1cc(O)c2cc(NC(=O)NCCCNC(=N)N)ccc2c1 [7a]
Reply text: 0.4

Inquiry: Provide the documented remaining activity at 100 µM with PRMT1 (Homo sapiens, UniProt Q99873) as the system for N=C(N)NCCCCC(=O)Nc1ccc2cc(C(=O)O)cc(O)c2c1 [6a]
Reply text: 69.7
